Target: h-GABA-A α5β3γ2 (Homo sapiens, UniProt P18507+P31644)
Sequence (P31644 32-462): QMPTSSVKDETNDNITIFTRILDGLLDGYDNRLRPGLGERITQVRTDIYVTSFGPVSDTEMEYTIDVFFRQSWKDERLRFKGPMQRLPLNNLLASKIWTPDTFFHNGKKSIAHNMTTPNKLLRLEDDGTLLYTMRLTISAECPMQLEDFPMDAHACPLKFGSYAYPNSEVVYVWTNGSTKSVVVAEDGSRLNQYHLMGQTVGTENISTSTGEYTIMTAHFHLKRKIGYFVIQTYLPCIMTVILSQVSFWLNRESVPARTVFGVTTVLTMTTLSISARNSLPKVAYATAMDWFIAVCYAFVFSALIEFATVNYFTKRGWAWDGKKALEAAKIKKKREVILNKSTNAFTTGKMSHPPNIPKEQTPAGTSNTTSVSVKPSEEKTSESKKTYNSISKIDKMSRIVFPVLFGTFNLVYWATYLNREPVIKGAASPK
Sequence (P28472 26-473 partner): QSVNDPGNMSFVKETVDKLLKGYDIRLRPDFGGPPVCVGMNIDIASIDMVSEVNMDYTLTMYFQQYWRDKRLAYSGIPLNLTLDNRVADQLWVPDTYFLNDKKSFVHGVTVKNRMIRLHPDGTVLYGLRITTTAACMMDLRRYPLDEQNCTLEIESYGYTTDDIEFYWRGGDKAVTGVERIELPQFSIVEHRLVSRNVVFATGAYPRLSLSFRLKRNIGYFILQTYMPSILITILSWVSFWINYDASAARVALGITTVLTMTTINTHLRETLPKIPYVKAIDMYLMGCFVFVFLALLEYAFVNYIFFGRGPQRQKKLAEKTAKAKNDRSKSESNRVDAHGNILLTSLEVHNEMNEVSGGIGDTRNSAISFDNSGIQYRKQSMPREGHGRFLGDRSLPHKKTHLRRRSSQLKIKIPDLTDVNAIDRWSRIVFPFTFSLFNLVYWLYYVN
Sequence (P18507 40-475): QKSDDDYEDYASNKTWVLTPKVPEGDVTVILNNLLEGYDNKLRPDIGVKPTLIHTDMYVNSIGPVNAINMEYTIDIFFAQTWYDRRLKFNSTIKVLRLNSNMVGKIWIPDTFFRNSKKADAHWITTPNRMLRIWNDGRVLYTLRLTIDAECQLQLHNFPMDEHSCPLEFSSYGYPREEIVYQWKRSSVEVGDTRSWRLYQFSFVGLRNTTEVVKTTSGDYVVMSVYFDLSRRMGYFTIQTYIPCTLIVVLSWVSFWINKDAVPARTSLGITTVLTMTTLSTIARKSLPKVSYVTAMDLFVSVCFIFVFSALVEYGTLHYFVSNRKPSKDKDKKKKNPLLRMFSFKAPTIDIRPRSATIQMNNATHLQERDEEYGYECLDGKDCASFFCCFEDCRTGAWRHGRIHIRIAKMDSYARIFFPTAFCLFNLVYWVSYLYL
Test: Two-electrode voltage clamp electrophysiology in Xenopus laevis oocytes expressing GABAA receptors, modulation of GABA EC20 current
Type: cell-based
Set-up: host or cells: Xenopus laevis oocytes micro-injected with RNA transcripts of the subunits
Conditions: % modulation of GABA EC20 = 100*(Fold increase-1); Table 1
Efficacy (GABA) % for assorted compounds

compound	units of measure	Efficacy (GABA) %
Cc1ccc(-c2noc(C)c2Cn2ncc(N3CCC4(CCOCC4)CC3)cc2=O)cn1 [Example 226]	%	95
CC(=O)N(C)[C@@H]1CCN(c2cnn(Cc3c(-c4ccc(C)nc4)noc3C)c(=O)c2)C1 [Example 2]	%	155
Cc1ccc(-c2noc(C)c2Cn2ncc(N3CC(OC4(C)CC4)C3)cc2=O)nn1 [Example 305]	%	100
Cc1ccc(-c2noc(C)c2Cn2ncc(N3CC(OC4CCC4)C3)cc2=O)nn1 [Example 238]	%	128
COC1CN(c2cnn(Cc3c(-c4cc(C)on4)noc3C)c(=O)c2)C1 [Example 140]	%	62
Cc1ccc(-c2noc(C)c2Cn2ncc(N3CC(OCC(F)F)C3)cc2=O)nn1 [Example 306]	%	101
CCc1nccn1C1CCN(c2cnn(Cc3c(-c4ccc(C)nc4)noc3C)c(=O)c2)CC1 [Example 109]	%	107
Cc1nonc1N1CCN(c2cnn(Cc3c(-c4ccc(Cl)nc4)noc3C)c(=O)c2)CC1 [Example 280]	%	166
Cc1ccc(-c2noc(C)c2Cn2ncc(N3CC4(CC(C)CO4)C3)cc2=O)nn1 (single isomer, unassigned) [Example 240]	%	94
Cc1onc(-c2ccc(C(F)(F)F)nc2)c1Cn1ncc(N2CCN(C3CC3)CC2)cc1=O [Example 66]	%	121
Cc1ccc(-c2noc(C)c2Cn2ncc(N3CCNCC3)cc2=O)cn1 [Example 75]	%	104
Cc1onc(-c2ccc(Cl)cn2)c1Cn1ncc(N2CC(OCC3CC3)C2)cc1=O [Example 143]	%	68
Cc1onc(-c2ccc(Cl)nc2)c1Cn1ncc(N2CCC3(CCO3)CC2)cc1=O [Example 270]	%	144
Cc1onc(-c2ccc(C(F)(F)F)nc2)c1Cn1ncc(N2CC(OCC(F)F)C2)cc1=O [Example 244]	%	140
CCOc1ccc(-c2cnn(Cc3c(-c4ccc(C)nc4)noc3C)c(=O)c2)cc1 [Example 79]	%	111
Cc1ccc(-c2noc(C(F)F)c2Cn2ncc(N3C[C@@H](C)O[C@@H](C)C3)cc2=O)cn1 [Example 182]	%	209
Cc1onc(-c2ccc(Cl)nc2)c1Cn1ncc(N2CCN(c3cncnc3)CC2)cc1=O [Example 277]	%	131
Cc1ccc(-c2noc(C)c2Cn2ncc(N3CC4(C[C@@H](OC(F)F)CO4)C3)cc2=O)cn1 [Example 203]	%	121
Cc1ccc(-c2noc(C)c2Cn2ncc(N3CC4(CCCO4)C3)cc2=O)nn1 [Example 171]	%	80
Cc1ccc(-c2noc(C)c2Cn2ncc(-c3cnn(CC4(C)COC4)c3)cc2=O)cn1 [Example 176]	%	103
Cc1ccc(-c2noc(C)c2Cn2ncc(N3CC4(CCC4)C3)cc2=O)cn1 [Example 69]	%	155
Cc1ccc(-c2noc(C)c2Cn2ncc(N3CCC(C#N)CC3)cc2=O)cn1 [Example 34]	%	222
Cc1ccc(-c2noc(C)c2Cn2ncc(N3CC(Oc4ccnc(Cl)c4)C3)cc2=O)nn1 [Example 236]	%	136
Cc1ccc(-c2noc(C)c2Cn2ncc(N3CC[C@H](O)C3)cc2=O)cn1 [Example 4]	%	145
Cc1ccc(-c2noc(C)c2Cn2ncc(-c3ccc(C4CC4)nc3)cc2=O)cn1 [Example 173]	%	80
Cc1ccc(-c2noc(C)c2Cn2ncc(N3CC4(C[C@@H](OC(F)F)CO4)C3)cc2=O)nn1 [Example 242]	%	80
Cc1ccc(-c2noc(C)c2Cn2ncc(N3CCN(C4CC4)CC3)cc2=O)cn1 [Example 36]	%	145
Cc1onc(-c2ccc(Cl)nc2)c1Cn1ncc(N2CC(OCC(F)F)C2)cc1=O [Example 245]	%	106
Cc1ccc(-c2noc(C)c2Cn2ncc(N3CC4(CCC(C(F)(F)F)CO4)C3)cc2=O)nn1 (single isomer, unassigned) [Example 321]	%	129
Cc1ccc(-c2noc(C)c2Cn2ncc(N3CC(Oc4ccc(Cl)nc4)C3)cc2=O)cn1 [Example 138]	%	105
Cc1ccc(-c2noc(C3CC3)c2Cn2ncc(N3CC4(CCCCO4)C3)cc2=O)nn1 [Example 259]	%	193
Cc1onc(-c2ccc(Cl)nc2)c1Cn1ncc(-c2cnn(C3CC3)c2)cc1=O [Example 222]	%	82
CNc1ccc(-c2cnn(Cc3c(-c4ccc(C)nc4)noc3C)c(=O)c2)cn1 [Example 174]	%	101

From: patent US11840528B2
